Molecular target: T1, human W3785-hProl.ECD.His (Human-TNFR2-His) protein (human, UniProt P20333 23-257)
T1 construct: extracellular domain; not shown: His tag
T1 sequence (looked up): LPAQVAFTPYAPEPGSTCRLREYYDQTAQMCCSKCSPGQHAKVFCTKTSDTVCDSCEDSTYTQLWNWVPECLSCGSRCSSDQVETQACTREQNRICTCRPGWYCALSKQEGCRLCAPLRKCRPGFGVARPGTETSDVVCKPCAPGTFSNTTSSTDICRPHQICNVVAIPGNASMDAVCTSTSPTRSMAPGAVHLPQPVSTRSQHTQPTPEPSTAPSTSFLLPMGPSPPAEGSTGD
Assay: BLI (Octet Red96e), antibody on AHC sensor, Human-TNFR2-His in solution, multiple concentrations
readout: koff (s⁻¹)
Note: unit s⁻¹ is implicit; provide only the numeric part.

Which koff value belongs to Antibody 04-xIgG1K (antibody, V domains shown, Rat-human chimeric antibody, human IgG1 kappa) VH: EVHLQQSGPEVGRPGSSVKISCKASGYTFTDYIIHWVKQSPGQGLEWMGWIDPDYGNTDYADKFKKKATLTADASSNTAFIHLSRLTSEDTATYFCARDDGSPLVMDAWGQGTSVTVSS VL: NIQLTQSPSLLSASVGDRVTLSCNGSQNIDNYLAWFQQKLGEAPKLLIYSTYSLQTGIPSRFSGSRSGTDYTLTISSLQPEDVATYFCFQYNNGYMFGAGTKLELKR ? 6.65e-05

Another binder: Antibody 27 (antibody, V domains shown, captured on AHC sensors) VH: EVQLVQSGAEVKKPGATVKISCKVSGYSITDYLLHWVQQAPGKGLEWMGWIDPEDAKTKYGQKFQSRVTITADTSTDTAYMELSSLRSEDTAVYYCAAQSGTGTMDAWGQGTLVTVSS VL: DIVMTQSPATLSVSPGERATLSCKASQNVGSNVDWYQQKPGQSPRVLIYKASIRYTGIPARFSGSGSGTEFTLTISILQSEDFAVYFCMQSKSYPITFGQGTKLEIK 0.00077
